- tested_target: Ubiquitin-like modifier-activating enzyme 7 (Homo sapiens)
- Sequence (P41226 whole entry): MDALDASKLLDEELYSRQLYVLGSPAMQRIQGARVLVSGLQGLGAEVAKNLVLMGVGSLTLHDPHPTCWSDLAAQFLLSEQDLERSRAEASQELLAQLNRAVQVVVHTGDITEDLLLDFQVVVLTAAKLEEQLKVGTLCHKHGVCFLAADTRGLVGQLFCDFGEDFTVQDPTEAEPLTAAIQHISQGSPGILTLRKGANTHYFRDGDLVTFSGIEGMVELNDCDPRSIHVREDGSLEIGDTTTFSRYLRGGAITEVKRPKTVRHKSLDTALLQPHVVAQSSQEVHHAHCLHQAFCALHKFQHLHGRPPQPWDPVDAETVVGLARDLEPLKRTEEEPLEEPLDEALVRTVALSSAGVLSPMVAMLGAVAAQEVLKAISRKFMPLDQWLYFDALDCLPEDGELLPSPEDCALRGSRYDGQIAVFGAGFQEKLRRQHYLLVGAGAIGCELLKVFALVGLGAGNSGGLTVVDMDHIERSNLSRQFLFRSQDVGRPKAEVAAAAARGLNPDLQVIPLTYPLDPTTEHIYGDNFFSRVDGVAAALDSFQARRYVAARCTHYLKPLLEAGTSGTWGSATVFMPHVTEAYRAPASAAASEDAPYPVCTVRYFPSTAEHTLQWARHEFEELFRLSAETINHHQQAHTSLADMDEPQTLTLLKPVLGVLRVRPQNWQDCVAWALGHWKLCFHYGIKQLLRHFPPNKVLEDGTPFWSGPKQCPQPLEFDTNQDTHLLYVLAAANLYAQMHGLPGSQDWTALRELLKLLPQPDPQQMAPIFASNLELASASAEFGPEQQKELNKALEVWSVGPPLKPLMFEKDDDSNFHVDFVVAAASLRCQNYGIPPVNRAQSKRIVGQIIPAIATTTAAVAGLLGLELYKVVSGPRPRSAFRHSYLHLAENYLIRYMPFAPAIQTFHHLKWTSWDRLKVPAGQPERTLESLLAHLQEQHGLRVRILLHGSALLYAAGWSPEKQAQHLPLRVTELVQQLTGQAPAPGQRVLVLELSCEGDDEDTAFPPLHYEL
measured_metric: IC50 (µM)
Give the quantity in µM, number only.

Which IC50 is listed for NS(=O)(=O)OC[C@H]1O[C@@H](n2cnc3c(N[C@H]4CCc5ccccc54)ncnc32)[C@H](O)[C@@H]1O ?
4

###

- tested_target: NEDD8-activating enzyme E1 catalytic subunit (Homo sapiens, UniProt Q8TBC4)
- Sequence (Q8TBC4 whole entry): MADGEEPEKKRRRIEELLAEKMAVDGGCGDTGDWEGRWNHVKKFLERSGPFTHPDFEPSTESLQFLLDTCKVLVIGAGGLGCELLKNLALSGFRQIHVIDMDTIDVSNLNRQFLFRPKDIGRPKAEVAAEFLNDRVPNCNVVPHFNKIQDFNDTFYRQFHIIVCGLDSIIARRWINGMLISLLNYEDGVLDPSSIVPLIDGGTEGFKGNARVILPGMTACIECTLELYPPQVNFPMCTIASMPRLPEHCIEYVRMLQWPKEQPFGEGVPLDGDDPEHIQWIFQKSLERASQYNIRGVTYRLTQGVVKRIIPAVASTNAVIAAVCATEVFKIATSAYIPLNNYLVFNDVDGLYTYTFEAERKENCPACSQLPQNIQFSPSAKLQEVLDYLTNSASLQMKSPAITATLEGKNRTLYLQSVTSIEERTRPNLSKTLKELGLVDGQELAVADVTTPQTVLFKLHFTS
- assay: Inhibition of NAE (unknown origin)-catalyzed NEDD8-Ubcl2 intermediate formation by densitometric analysis
measured_metric: pIC50
// pIC50 here means minus log10 of the molar concentration (mol/L)

Which pIC50 is listed for O=C(O)CNC(=O)CNC(=O)COc1ccc2nc3n(c(=O)c2c1)CCC3 ?
6.10

###

- tested_target: NEDD8-activating enzyme E1 catalytic subunit (Homo sapiens)
- assay: Inhibition of NAE (unknown origin)-catalyzed transthiolation of NEDD8 from NAE to Ubc12
measured_metric: IC50 (µM)
Give the quantity in µM, number only.

Query for NEDD8-activating enzyme E1 catalytic subunit (Homo sapiens): what IC50 does the record show for O=c1cc(-c2ccc(O)cc2)oc2cc(O)c(-c3c(O)cc4oc(-c5ccc(O)cc5)cc(=O)c4c3O)c(O)c12 ?
20

###

- tested_target: NEDD8-activating enzyme E1 regulatory subunit (Homo sapiens, UniProt Q13564)
- Sequence (Q13564 whole entry): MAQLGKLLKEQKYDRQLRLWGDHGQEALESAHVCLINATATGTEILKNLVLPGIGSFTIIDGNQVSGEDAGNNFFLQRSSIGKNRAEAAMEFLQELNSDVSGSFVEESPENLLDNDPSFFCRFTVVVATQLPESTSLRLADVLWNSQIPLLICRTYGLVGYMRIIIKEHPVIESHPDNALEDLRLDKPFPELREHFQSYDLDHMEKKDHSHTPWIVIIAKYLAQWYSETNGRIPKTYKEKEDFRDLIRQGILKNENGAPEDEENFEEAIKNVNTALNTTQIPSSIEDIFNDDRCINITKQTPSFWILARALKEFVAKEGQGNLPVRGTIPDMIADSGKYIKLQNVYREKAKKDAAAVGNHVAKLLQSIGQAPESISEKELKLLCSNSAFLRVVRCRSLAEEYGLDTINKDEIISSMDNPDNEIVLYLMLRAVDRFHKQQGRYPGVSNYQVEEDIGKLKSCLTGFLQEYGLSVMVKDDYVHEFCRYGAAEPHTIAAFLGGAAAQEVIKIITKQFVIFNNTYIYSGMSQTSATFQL
- assay: Inhibition of NAE (unknown origin) assessed as decrease in NEDD8-Ubcl2 formation
measured_metric: IC50 (µM)
Give the quantity in µM, number only.

Which IC50 is listed for O=c1cc(-c2ccc(O)cc2)oc2cc(O)c(-c3c(O)cc4oc(-c5ccc(O)cc5)cc(=O)c4c3O)c(O)c12 ?
5

###

- tested_target: Ubiquitin-like modifier-activating enzyme 6 (Homo sapiens)
- Sequence (A0AVT1 whole entry): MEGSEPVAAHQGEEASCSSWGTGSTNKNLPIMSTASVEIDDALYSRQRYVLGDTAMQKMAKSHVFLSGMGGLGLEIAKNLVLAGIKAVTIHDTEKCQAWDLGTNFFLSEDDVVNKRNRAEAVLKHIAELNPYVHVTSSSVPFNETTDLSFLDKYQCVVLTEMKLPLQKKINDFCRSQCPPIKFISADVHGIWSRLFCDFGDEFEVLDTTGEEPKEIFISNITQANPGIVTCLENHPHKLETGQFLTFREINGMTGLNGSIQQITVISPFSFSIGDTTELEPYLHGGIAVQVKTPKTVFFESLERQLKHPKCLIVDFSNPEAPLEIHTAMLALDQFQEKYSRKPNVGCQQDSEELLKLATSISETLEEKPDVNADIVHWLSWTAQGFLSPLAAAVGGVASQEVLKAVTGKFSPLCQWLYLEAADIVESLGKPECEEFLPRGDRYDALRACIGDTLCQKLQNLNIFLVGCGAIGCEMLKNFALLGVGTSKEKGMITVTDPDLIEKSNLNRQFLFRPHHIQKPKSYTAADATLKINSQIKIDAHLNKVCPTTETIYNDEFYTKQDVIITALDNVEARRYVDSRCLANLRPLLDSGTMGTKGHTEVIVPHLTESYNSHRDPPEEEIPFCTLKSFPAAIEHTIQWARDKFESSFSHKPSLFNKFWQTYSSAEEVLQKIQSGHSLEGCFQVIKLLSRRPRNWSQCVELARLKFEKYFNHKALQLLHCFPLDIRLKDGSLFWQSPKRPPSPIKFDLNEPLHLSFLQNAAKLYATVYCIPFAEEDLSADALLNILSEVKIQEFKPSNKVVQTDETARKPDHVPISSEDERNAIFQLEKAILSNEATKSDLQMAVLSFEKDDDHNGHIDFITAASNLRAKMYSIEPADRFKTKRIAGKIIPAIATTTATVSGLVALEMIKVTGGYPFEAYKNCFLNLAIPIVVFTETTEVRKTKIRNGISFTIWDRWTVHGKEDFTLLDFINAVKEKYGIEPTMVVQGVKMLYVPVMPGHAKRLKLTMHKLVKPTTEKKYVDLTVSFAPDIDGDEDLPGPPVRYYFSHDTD
measured_metric: pIC50
// pIC50 here means minus log10 of the molar concentration (mol/L)

Query for Ubiquitin-like modifier-activating enzyme 6 (Homo sapiens): what pIC50 does the record show for NS(=O)(=O)OC[C@H]1O[C@@H](n2cnc3c(N[C@H]4CCc5ccccc54)ncnc32)[C@H](O)[C@@H]1O ?
6.04

###

- tested_target: SUMO-activating enzyme subunit 1 (Homo sapiens, UniProt Q9UBE0)
- Sequence (Q9UBE0 whole entry): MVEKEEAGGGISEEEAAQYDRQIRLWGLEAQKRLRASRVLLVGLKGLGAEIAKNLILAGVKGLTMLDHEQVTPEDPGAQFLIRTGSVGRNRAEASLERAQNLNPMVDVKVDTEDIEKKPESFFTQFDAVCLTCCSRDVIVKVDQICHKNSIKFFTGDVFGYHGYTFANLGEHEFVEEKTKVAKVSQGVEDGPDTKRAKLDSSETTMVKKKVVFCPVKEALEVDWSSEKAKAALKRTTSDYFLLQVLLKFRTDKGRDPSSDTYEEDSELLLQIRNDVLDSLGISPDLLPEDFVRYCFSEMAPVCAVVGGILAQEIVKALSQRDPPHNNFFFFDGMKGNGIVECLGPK
- assay: Inhibition of recombinant SAE1(unknown origin)-mediated SUMOylation of RanGAP1-C2
measured_metric: IC50 (nM)
Give the quantity in nM, number only.

CCCCCCCCCCCCCCCc1cccc(O)c1C(=O)O	2200

Which IC50 is listed for CCCCCC/C=C\CCCCCCCc1cccc(O)c1C(=O)O ?
3000

###

- tested_target: SUMO-activating enzyme subunit 1 (Homo sapiens)
- assay: Inhibition of human SAE by fluorescence assay
measured_metric: IC50

Which IC50 is listed for CCCCCCCC(=O)SCC/C=C/[C@@H]1CC(=O)NCc2nc(cs2)C2=N[C@@](C)(CS2)C(=O)N[C@@H](C(C)C)C(=O)O1 [LARGAZOLE] ?
450 µM

###

- assay: Inhibition of N-terminal GST-tagged human UAE-catalyzed UAE-Ub thioester intermediate formation expressed in HI5 insect cells after 30 mins by immunoblotting analysis
measured_metric: IC50

Which IC50 is listed for CCOC(=O)c1ccc(N2NC(=O)/C(=C/c3ccc([N+](=O)[O-])o3)C2=O)cc1 ?
< 10 µM

###

- assay: Competitive inhibition of human UAE-catalyzed ATP-PPi exchange reaction expressed in Sf9 insect cells after 60 mins in presence of 10 uM ATP
measured_metric: IC50 (nM)
Give the quantity in nM, number only.

Which IC50 is listed for NS(=O)(=O)OC[C@H]1O[C@@H](n2cnc3c(N[C@H]4CCc5ccccc54)ncnc32)[C@H](O)[C@@H]1O ?
10.2

###

- assay: Inhibition of UAE-catalyzed UAE-Ub thioester intermediate formation in human RPE cells by immunoblotting analysis
- Type: cell-based
measured_metric: pIC50
// pIC50 here means minus log10 of the molar concentration (mol/L)

Which pIC50 is listed for CCOC(=O)N1CCN(/[N+]([O-])=N/Oc2ccc([N+](=O)[O-])cc2[N+](=O)[O-])CC1 ?
5.70
